target: Albumin (Homo sapiens); assay: Binding affinity to human serum albumin in THB medium containing 40 g/L HSA; format: ADME; conditions: human serum albumin (40 g/L) in THB medium, read-out: PB (converted)
Sequence (P02768 whole entry): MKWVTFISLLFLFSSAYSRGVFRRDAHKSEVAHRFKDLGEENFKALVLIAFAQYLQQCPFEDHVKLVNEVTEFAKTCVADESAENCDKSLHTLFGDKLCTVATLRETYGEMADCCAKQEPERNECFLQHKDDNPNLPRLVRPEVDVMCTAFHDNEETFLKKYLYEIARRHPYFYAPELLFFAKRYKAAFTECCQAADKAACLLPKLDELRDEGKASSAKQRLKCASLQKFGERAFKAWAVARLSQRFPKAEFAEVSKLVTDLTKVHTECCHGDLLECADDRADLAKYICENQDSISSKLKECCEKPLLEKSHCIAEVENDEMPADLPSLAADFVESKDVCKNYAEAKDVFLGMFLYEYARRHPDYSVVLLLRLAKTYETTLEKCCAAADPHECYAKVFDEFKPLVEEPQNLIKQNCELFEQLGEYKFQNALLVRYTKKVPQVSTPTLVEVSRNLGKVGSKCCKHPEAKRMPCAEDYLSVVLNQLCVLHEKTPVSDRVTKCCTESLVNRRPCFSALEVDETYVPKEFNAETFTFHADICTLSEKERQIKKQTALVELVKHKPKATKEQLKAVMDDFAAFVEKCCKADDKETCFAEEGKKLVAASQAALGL
Measured fraction unbound by item
Please reply with the value in numeric form only.

Chem smiles	Result number
CO/N=C(\C(=O)N[C@@H]1C(=O)N2C(C(=O)O)=C(CSc3nc(=O)c(=O)[nH]n3C)CS[C@H]12)c1csc(N)n1	0.431

Continue with the compound presented below.
Consider `C[C@@H](O)[C@H]1C(=O)N2C(C(=O)O)=C(S[C@@H]3CN[C@H](C(=O)Nc4cccc(C(=O)O)c4)C3)[C@H](C)[C@H]12` . Its measured fraction unbound is 0.822

Data origin: ChEMBL document CHEMBL1671635
